Target: T1, human TL1A (human, UniProt O95150 72-251, limits assumed)
T1 construct: also called tumor necrosis factor-like cytokine 1A; TNFSF15
T1 sequence (looked up): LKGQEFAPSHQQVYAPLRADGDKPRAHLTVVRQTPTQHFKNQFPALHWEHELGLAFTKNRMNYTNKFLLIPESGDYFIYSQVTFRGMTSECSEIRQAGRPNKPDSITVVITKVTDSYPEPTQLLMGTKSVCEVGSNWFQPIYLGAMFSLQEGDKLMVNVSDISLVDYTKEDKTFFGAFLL
Assay: ELISA titration on plate-coated human TL1A, unpurified culture supernatant
The following binders are shown together with reported pKd values.
Keep in mind that pKd stands for -log10 of concentration in molar terms.

Below, 4 binders whose answers are already recorded.
binder	pKd
A196 (antibody, IgG1, V domains shown) VH: EVQLVQSGAEVKKPGASVKVSCKASGFDIQDTYMHWVRQAPGQGLEWMGRIEPASGHIKYDPKFQGRATMTRDTSTSTVYMELSSLRSEDTAVYYCARSGGLPDWWGQGTTVTVSS VL: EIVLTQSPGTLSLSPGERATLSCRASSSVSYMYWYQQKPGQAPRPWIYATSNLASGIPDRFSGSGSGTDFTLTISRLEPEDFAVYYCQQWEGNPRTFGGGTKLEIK	10.27
A172 (antibody, IgG1, V domains shown) VH: QVQLVQSGAEVKKPGASVKVSCKASGFDIQDTYMHWVRQAPGQGLEWMGRIDPASGHIKYDPKFQGRATMTRDTSTSTVYMELSSLRSEDTAVYYCARSGGLPDWWGQGTTVTVSS VL: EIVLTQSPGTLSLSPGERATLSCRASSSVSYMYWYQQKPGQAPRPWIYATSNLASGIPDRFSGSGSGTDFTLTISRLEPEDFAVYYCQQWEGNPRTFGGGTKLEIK	10.40
A217 (antibody, IgG1, V domains shown) VH: QVQLVQSGAEVKKPGASVKVSCKASGFDIQDTYMHWVKQRPGQGLEWMGRIDPASGHTKYDPKFQVRVTITRDTSTSTVYMELSSLRSEDTAVYYCARSGGLPDVWGQGTTVTVSS VL: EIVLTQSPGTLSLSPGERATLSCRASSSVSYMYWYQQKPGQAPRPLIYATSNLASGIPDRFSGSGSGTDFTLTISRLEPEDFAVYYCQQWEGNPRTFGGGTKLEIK	10.37
A210 (antibody, IgG1, V domains shown) VH: EVQLVQSGAEVKKPGASVKVSCKASGFDIQDTYMHWVRQAPGQGLEWMGRIEPASGHIKYDPKFQGRVTMTRDTSTSTAYMELSSLRSEDTAVYYCARSGGLPDWWGQGTTVTVSS VL: EIVLTQSPGTLSLSPGERATLSCRASSSVSYMYWYQQKPGQAPRLLIYATSNLASGIPDRFSGSGSGTDFTLTISRLEPEDFAVYYCQQWEGNPRTFGGGTKLEIK	10.15

Moving on to the next binder.
Which pKd is listed for A186 (antibody, IgG1, V domains shown) VH: QVQLVQSGAEVKKPGASVKVSCKASGFDIQDTYMHWVKQRPGQGLEWIGRIDPASGHTKYDPKFQVRATMTTDTSTSTAYLELSSLRSEDTAVYYCARSGGLPDVWGQGTTVTVSS VL: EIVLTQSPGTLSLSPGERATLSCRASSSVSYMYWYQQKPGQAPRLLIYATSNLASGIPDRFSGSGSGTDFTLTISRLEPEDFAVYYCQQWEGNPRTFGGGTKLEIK ?
10.17

Provenance of the data: patent US20260216326A1
